Test: Half life in Beagle dog at 1 mg/kg, iv
Type: ADME, organism-based, Canis lupus familiaris
Conditions: in vivo
Metric: half-life (h)
Supply the numeric figure in h, leaving out any unit text.

Challenge: Look up half-life: CCNC1=N[C@@H]2[C@@H](O)[C@H](O)[C@@H](C(F)F)O[C@@H]2S1
Response given: 2.3

----------
Experiment: Protein binding in rat plasma
Type: ADME, cell-free
Settings: read-out: PPB
Metric: fraction unbound

Challenge: Look up fraction unbound: CCNC1=N[C@@H]2[C@@H](O)[C@H](O)[C@@H](C(F)F)O[C@@H]2S1
Response given: > 0.95

----------
System: Rattus norvegicus
Experiment: Increase in O-protein AUC in rat brain at 10 mg/kg, po measured upto 24 hrs
Format: ADME, organism-based
Details: in vivo
Metric: fold change (FC)
Write no unit; give the number alone.

>>> df
                              record_smiles            metric  value_measured
0  CN(C)C1=N[C@@H]2[C@@H](O)[C@H](O)[C@@H](C(F)F)O[C@@H]2S1  fold change (FC)           34.18
1  CNC1=N[C@@H]2[C@H](F)[C@H](O)[C@@H](C(F)F)O[C@@H]2S1  fold change (FC)           11.69
2  CNC1=N[C@@H]2C[C@H](O)[C@@H](C(F)F)O[C@@H]2S1  fold change (FC)           19.68

Now take the following compound into account.
Challenge: Look up fold change (FC): CCNC1=N[C@@H]2[C@@H](O)[C@H](O)[C@@H](C(F)F)O[C@@H]2S1
Response given: 31.42
